- assaySystem: MyD88^TIR (Homo sapiens)
- Construct: MyD88 (residues 148–296); 6xHis; made in house; host or cells: E. coli BL21 (DE3)
- method: T‐Surf phage library (P8 and P3) selection against MyD88^TIR, four rounds, NGS read counts
- Type: binding
- measurementSetup: P8_MyD88 pool: P8 T-Surf phage library, 4th round of selection against MyD88 TIR, share of NGS reads
readoutType: Population (%)

Worked cases, Population given:
seqstring=ELDFSHFWLFDGQATGEA assaysystem="MyD88^TIR (Homo sapiens)" readoutnumber=0.00809
seqstring=WLESVLEDKFGYSLAL assaysystem="MyD88^TIR (Homo sapiens)" readoutnumber=0.02
seqstring=FFSGFRELEDFISKLW assaysystem="MyD88^TIR (Homo sapiens)" readoutnumber=0.02
seqstring=SEDTRNNFLYHLYEAL assaysystem="MyD88^TIR (Homo sapiens)" readoutnumber=0.022
seqstring=LGYHWIDWEYFVGSED assaysystem="MyD88^TIR (Homo sapiens)" readoutnumber=0.00655
seqstring=QDLGWFYERLISQILK assaysystem="MyD88^TIR (Homo sapiens)" readoutnumber=0.02
seqstring=PQDLEWFYERLFSQM assaysystem="MyD88^TIR (Homo sapiens)" readoutnumber=0.0227
seqstring=YASYDDNDYYWVTHVLLRHM assaysystem="MyD88^TIR (Homo sapiens)" readoutnumber=0.00732

(I) ELDFSHFWLFDGHATGEA
(II) DLVWDYLLPNLEGPAG
Q) // compare measured Population, left I , right II , return larger Which one? Tell me its label.
A) I
(I: 0.0177%, II: 0.00886%)

(a) YASSTWALDELLQIFE
(b) MDYLLRILHSSNFTTF
(c) YLLLSVFQTIFARRTD
Q) Could you please sort these 3 entries by Population from high to low? List the labels, following the order given in the request.
A) b, a, c
(b: 0.022%, a: 0.0135%, c: 0.00771%)

(I) DPQDLDWFYERLVILF
(II) DPQDLVWFYERLVSLF
(III) PQDLDWFYERLVSLL
Q) Sort (3 sequences) by Population: min first. Quick reminder: the answer is the labels in the order asked.
A) II, I, III
(II: 0.00886%, I: 0.0131%, III: 0.0189%)

(a) DPQDLEWFYERLVSLI
(b) VSSFISYLIAAFNRQG
Q) Kindly identify the item with the lower Population figure among these two: a and b # reply format: chosen label
A) a
(a: 0.01%, b: 0.0173%)

----------
- assaySystem: MyD88^TIR (Homo sapiens, UniProt Q99836)
- Construct: MyD88 (residues 148–296); 6xHis; made in house; host or cells: E. coli BL21 (DE3)
- Sequence (Q99836 148-296): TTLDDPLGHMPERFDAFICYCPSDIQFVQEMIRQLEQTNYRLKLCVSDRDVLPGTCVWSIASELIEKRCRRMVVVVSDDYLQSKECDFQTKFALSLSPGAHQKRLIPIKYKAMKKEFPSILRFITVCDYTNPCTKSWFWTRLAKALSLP
- method: T‐Surf phage library (P8 and P3) selection against MyD88^TIR, four rounds, NGS read counts
- Format: binding
- measurementSetup: P8 library, selection against MyD88, rank by count before grouping
- Protocol: T‐Surf libraries were screened against the immobilized TIR domains of two major human TLR adaptor proteins, MAL^TIR and MyD88^TIR, allowing cross‐species selection of TIR‐binding motifs with 190 946 TIR‐derived peptides in a single binding assay (Scheme 1). Enriched phage pools from the fourth round of selection were analyzed using NGS after barcoding the peptide‐coding regions of the phage pools. […]
readoutType: P8_MyD88 Rank (before)

(P) DPQDLDWFYERRVCLF
(Q) WALDELRKNLYAIETM
Q) Pick the one with the larger P8_MyD88 Rank (before): P vs Q Pick one; state its label.
A) P

(1) PNLRTKVLNYLMRTKT
(2) FFSGFREQEDFISKRW
Q) Smaller P8_MyD88 Rank (before) value? Options are 1 and 2 Refer to your chosen item by its label in the answer.
A) 2

(a) DPQDEDWLYERLGGLF
(b) WALDELLQILHVSEMF
Q) Between the two listed entries a and b , which has its P8_MyD88 Rank (before) at the higher number? Your answer should be the label attached to the chosen record.
A) a
(a: 2696, b: 1418)

(a) LGYHWVDWEDLLSIEE
(b) WRDALNNISSIFGWVA
Q) API: POST /compare with a and b ; response names the item with higher P8_MyD88 Rank (before). In your reply, give the label of the chosen option.
A) a
(a: 3235, b: 1648)

(a) DPQVLEWFYELLVSLL
(b) WDFASNMEQFWDRLLYA
Q) For the two items a and b , which reports the higher P8_MyD88 Rank (before) value? Selection: enter the item's label.
A) a

(P) WALDERLIIQYANETM
(Q) DPQDLQCSSERLVSLI
Q) Lower P8_MyD88 Rank (before): P or Q ? Selection: enter the item's label.
A) P
(P: 1510, Q: 2906)

(1) DLLVLEWFYERVFSQM
(2) SDVDHLTYLVRVRLCR
(3) FGDHRMWWEDLVGIVD
Q) Provide the items ranked by increasing P8_MyD88 Rank (before). Respond with the label ranking, as requested.
A) 3, 1, 2
(3: 1302, 1: 2590, 2: 3748)

(I) YASYDDNDYYWMTHVLLRHM
(II) EDSIFYAVSSGALDEP
Q) Please indicate which has the smaller reported P8_MyD88 Rank (before): I , or II . Kindly state the label of the option you pick.
A) I
(I: 1816, II: 3174)

----------
- assaySystem: MAL^TIR (Homo sapiens, UniProt P58753)
- Construct: MAL (residues 79–221); 6xHis; made in house; host or cells: E. coli BL21 (DE3)
- Sequence (P58753 79-221): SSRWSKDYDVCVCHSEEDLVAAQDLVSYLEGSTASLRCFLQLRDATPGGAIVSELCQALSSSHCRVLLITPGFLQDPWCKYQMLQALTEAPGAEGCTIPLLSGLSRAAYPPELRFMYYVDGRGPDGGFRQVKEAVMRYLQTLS
- method: T‐Surf phage library (P8 and P3) selection against MAL^TIR, four rounds, NGS read counts
- Type: binding
- measurementSetup: P3_MAL: rank by count before grouping
readoutType: Rank (before)

seqstring=DHHLNPPPGKAIKPEMLG assaysystem="MAL^TIR (Homo sapiens, UniProt P58753)" readoutnumber=1951
seqstring=LKWGYPWFWDRLRFA assaysystem="MAL^TIR (Homo sapiens, UniProt P58753)" readoutnumber=329
seqstring=YLKWGYTRCWDRLRFA assaysystem="MAL^TIR (Homo sapiens, UniProt P58753)" readoutnumber=1518
seqstring=SLFLSSRFKDDADLVGQ assaysystem="MAL^TIR (Homo sapiens, UniProt P58753)" readoutnumber=3057

(1) NQWRNSLTAAANLSGR
(2) YFWNALENALAVNNDV
(3) LGFFCNQAKALSDRGI
(4) KMQKWKEALHQFHSWV
Q) Hey, quick one: sort these by Rank (before), largest value first please. // rank by listing labels in the order requested
A) 1, 3, 2, 4

----------
- assaySystem: MyD88^TIR (Homo sapiens, UniProt Q99836)
- Construct: MyD88 (residues 148–296); 6xHis; made in house; host or cells: E. coli BL21 (DE3)
- method: T‐Surf phage library (P8 and P3) selection against MyD88^TIR, four rounds, NGS read counts
- Type: binding
- measurementSetup: P8 library, 4R selection against MyD88, rank before grouping
- Description: T‐Surf libraries were screened against the immobilized TIR domains of two major human TLR adaptor proteins, MAL^TIR and MyD88^TIR, allowing cross‐species selection of TIR‐binding motifs with 190 946 TIR‐derived peptides in a single binding assay (Scheme 1). Enriched phage pools from the fourth round of selection were analyzed using NGS after barcoding the peptide‐coding regions of the phage pools. […]
readoutType: P8_MyD88 Rank (before)

seqstring=IDDDHLTYLVRLLYSLHVT readouttype="P8_MyD88 Rank (before)" readoutnumber=3630
seqstring=DPQDLDLFYERLVSMF readouttype="P8_MyD88 Rank (before)" readoutnumber=2739
seqstring=DPPVLEWFYESLFSQM readouttype="P8_MyD88 Rank (before)" readoutnumber=2624

----------
- assaySystem: MAL^TIR (Homo sapiens)
- Construct: MAL (residues 79–221); 6xHis; made in house; host or cells: E. coli BL21 (DE3)
- method: T‐Surf phage library (P8 and P3) selection against MAL^TIR, four rounds, NGS read counts
- Format: binding
- measurementSetup: P3 library, selection against MAL TIR; rank by count before grouping
readoutType: P3_MAL Rank (before)

Recorded results for 5 sequences are shown here.
seqstring=YNFISHLYDTLHRNRN readoutnumber=1578
seqstring=RLLKWKEEMHQFHSWV readoutnumber=2531
seqstring=NQLRTALTAAANLSGW readoutnumber=3324
seqstring=PNLRTNVLNYLMRPKT readoutnumber=2696
seqstring=LKAERWRQALEKAGKL readoutnumber=2304

(A) MERVKAFHQRLKTAPI
(B) DQCRNALTAAANLSGW
Q) Returns: the label, A or B , whose recorded P3_MAL Rank (before) is the lower number. Returns: label corresponding to the selected item.
A) B
(B: 1953, A: 2932)

----------
- assaySystem: MyD88^TIR (Homo sapiens, UniProt Q99836)
- Construct: MyD88 (residues 148–296); 6xHis; made in house; host or cells: E. coli BL21 (DE3)
- method: T‐Surf phage library (P8 and P3) selection against MyD88^TIR, four rounds, NGS read counts
- Format: binding
- measurementSetup: P8_MyD88: rank by count before grouping
readoutType: Rank (before)

Examples with answers:
seqstring=WALDELLQILNAREMF readoutnumber=1464
seqstring=DPQNLQWFYERLVILI readoutnumber=3031
seqstring=WILRAIWNSFGIVCI readoutnumber=1653
seqstring=YASSTWWLRELLQIA readoutnumber=208
seqstring=IDDDHLTYLVRLIEAL readoutnumber=3638

(I) WGQAVTEDLWGWLFNP
(II) DPQDLQSLYEGLVSLV
Q) Field: lower Rank (before) | Options: I / II Provide the label of your selected option as the answer.
A) I
(I: 201, II: 2944)

(A) HFETTEGNFYKFFLFF
(B) EPQDLDWFYERLVSLL
Q) Which of the two items, A and B , has the greater recorded Rank (before)? Record your answer as the label of the chosen record.
A) B

(I) DLQDVGWFLSKLSQHI
(II) DPQDLDWFYEHLVSLL
Q) Consider entries I and II . Which has the numerically lower Rank (before)? Give the label under which the chosen entry appears.
A) I
